Test system: 616215-338-R-J1-PDC tumor spheroids, viability
TEST_METHOD_NOTES: Anticancer human tumor 616215-338-R-J1-PDC patient-derived colon adenocarcinoma cell line growth inhibition [GQUAD]
CONDITIONS_USED: curve of first compound; second compound 0.316 µM; spheroids with HUVEC and MSC

{"COMPOUND": "O=C(NO)c1cnc(N2CCN(S(=O)(=O)c3ccc4ccccc4c3)CC2)nc1 + CN(C)c1ccc(Nc2c3ccc(NC(=O)CCN4CCCC4)cc3nc3cc(NC(=O)CCN4CCCC4)ccc23)cc1", "TARGET_ENTITY": "616215-338-R-J1-PDC tumor spheroids, viability", "VALUE_OPERATOR": "=", "IC50 [nM]": 255}
{"COMPOUND": "COc1cc(C2c3cc4c(cc3C(OC3OC5COC(C)OC5C(O)C3O)C3COC(=O)C23)OCO4)cc(OC)c1O (stereo not given) + CN(C)c1ccc(Nc2c3ccc(NC(=O)CCN4CCCC4)cc3nc3cc(NC(=O)CCN4CCCC4)ccc23)cc1", "TARGET_ENTITY": "616215-338-R-J1-PDC tumor spheroids, viability", "VALUE_OPERATOR": "=", "IC50 [nM]": 693}
{"COMPOUND": "COc1ccc([C@@H](O)c2cc(-c3ncnc4cc(N5CCOCC5)ccc34)c(F)cc2Cl)nn1 + CN(C)c1ccc(Nc2c3ccc(NC(=O)CCN4CCCC4)cc3nc3cc(NC(=O)CCN4CCCC4)ccc23)cc1", "TARGET_ENTITY": "616215-338-R-J1-PDC tumor spheroids, viability", "VALUE_OPERATOR": ">", "IC50 [nM]": 10000}
{"COMPOUND": "CCc1c2c(nc3ccc(O)cc13)-c1cc3c(c(=O)n1C2)COC(=O)[C@]3(O)CC + Cc1cnc(CNC(=O)c2c(=O)c3ccc(N4CCCN(C)CC4)nc3n3c2sc2ccccc23)cn1", "TARGET_ENTITY": "616215-338-R-J1-PDC tumor spheroids, viability", "VALUE_OPERATOR": "<", "IC50 [nM]": 0.999}
{"COMPOUND": "COc1cccc2c1C(=O)c1c(O)c3c(c(O)c1C2=O)CC(O)(C(=O)CO)CC3OC1CC(N)C(O)C(C)O1 (stereo not given) + Cc1[nH]c2ccc(F)cc2c1-c1nc2c3cccnc3c3ncccc3c2[nH]1", "TARGET_ENTITY": "616215-338-R-J1-PDC tumor spheroids, viability", "VALUE_OPERATOR": "=", "IC50 [nM]": 554}

###

Item-by-item account of viability, T/C
Test system: 616215-338-R-J1-PDC tumor spheroids, viability
TEST_METHOD_NOTES: Anticancer human tumor 616215-338-R-J1-PDC cell line growth inhibition [GQUAD];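 further: spheroids exposed to agents for 7 days before readout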;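 on viability, T/C: percent viability relative to DMSO vehicle control wells taken as 100%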
CONDITIONS_USED: second compound 0.316 µM; first compound 1 µM; stronger effect = lower value; spheroids with HUVEC and MSC
MEASURED_ENDPOINT: viability, T/C (%)

{"COMPOUND": "CC1COCCN1c1cc(-c2ccnn2C)c2ccnc(-c3ccn[nH]3)c2n1 (stereo not given) + Cc1[nH]c2ccc(F)cc2c1-c1nc2c3cccnc3c3ncccc3c2[nH]1", "TARGET_ENTITY": "616215-338-R-J1-PDC tumor spheroids, viability", "MEASURED_ENDPOINT": "viability, T/C", "OBSERVED_VALUE": 27.7}
{"COMPOUND": "CC1COCCN1c1cc(C2(O)CC3CCC(C2)O3)c2cnn(-c3ccn[nH]3)c2n1 (stereo not given) + Cc1cnc(CNC(=O)c2c(=O)c3ccc(N4CCCN(C)CC4)nc3n3c2sc2ccccc23)cn1", "TARGET_ENTITY": "616215-338-R-J1-PDC tumor spheroids, viability", "MEASURED_ENDPOINT": "viability, T/C", "OBSERVED_VALUE": 19.7}
{"COMPOUND": "CC(C)n1c(=O)n(C)c2cnc3cc(F)c(-c4ccc(OCCCN5CCCCC5)nc4)cc3c21 + Cc1cnc(CNC(=O)c2c(=O)c3ccc(N4CCCN(C)CC4)nc3n3c2sc2ccccc23)cn1", "TARGET_ENTITY": "616215-338-R-J1-PDC tumor spheroids, viability", "MEASURED_ENDPOINT": "viability, T/C", "OBSERVED_VALUE": 38.5}
{"COMPOUND": "CCCS(=O)(=O)Nc1ccc(F)c(C(=O)c2c[nH]c3ncc(-c4ccc(Cl)cc4)cc23)c1F + CN(C)c1ccc(Nc2c3ccc(NC(=O)CCN4CCCC4)cc3nc3cc(NC(=O)CCN4CCCC4)ccc23)cc1", "TARGET_ENTITY": "616215-338-R-J1-PDC tumor spheroids, viability", "MEASURED_ENDPOINT": "viability, T/C", "OBSERVED_VALUE": 92}
{"COMPOUND": "Cc1cccc(N(C)C(=O)C2C(O)CCN2c2nc(C)cc(C(F)(F)F)c2C#N)c1 (stereo not given) + Cc1[nH]c2ccc(F)cc2c1-c1nc2c3cccnc3c3ncccc3c2[nH]1", "TARGET_ENTITY": "616215-338-R-J1-PDC tumor spheroids, viability", "MEASURED_ENDPOINT": "viability, T/C", "OBSERVED_VALUE": 100}
